biological target: L-lactate dehydrogenase (Plasmodium falciparum (isolate CDC / Honduras)) (UniProt Q27743); assay: PfLDH activity inhibition – cell lysate, 3D7 strain, counter-screen for P. falciparum growth inhibition project (AID 2304);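 also: 0% = vehicle and 100% = reference inhibitor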; details: P. falciparum 3D7 crude extract, LDH APAD/NBT absorbance; at 2 µM; stronger effect = higher value
Sequence (Q27743 whole entry, looked up): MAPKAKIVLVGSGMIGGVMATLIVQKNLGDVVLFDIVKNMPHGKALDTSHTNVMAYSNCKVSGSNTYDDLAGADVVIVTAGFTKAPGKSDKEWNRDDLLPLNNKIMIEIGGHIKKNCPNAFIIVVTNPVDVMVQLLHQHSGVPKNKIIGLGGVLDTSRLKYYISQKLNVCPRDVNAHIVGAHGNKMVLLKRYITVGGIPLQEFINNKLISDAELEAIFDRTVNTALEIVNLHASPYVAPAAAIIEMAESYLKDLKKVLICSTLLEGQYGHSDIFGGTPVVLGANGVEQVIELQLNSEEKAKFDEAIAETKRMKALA
The source made the active and inactive calls. No rule for the calls is given here.
Could you please report measured inhibition for the items listed next?

## Input For the compound CN(C)CC(=O)Nc1ccc(Nc2nccc(NCC(O)c3ccccc3)n2)cc1 (centres undefined) , report inhibition.
## Output -4% (inactive)

## Input For the compound O=C(Nc1ccc(S(=O)(=O)N2CCCCC2)cc1)c1cc(-c2ccccc2O)n[nH]1 , report inhibition.
## Output -2% (inactive)

## Input For the compound COc1ccc2nccc([C@@H](O)CN3CCC(NCCOc4ccccc4C(F)(F)F)CC3)c2c1 , report inhibition.
## Output -5% (inactive)

## Input For the compound Cc1occc1C(=O)Nc1nc(-c2ccccn2)nc2ccsc12 , report inhibition.
## Output 5% (inactive)

## Input For the compound CC1CCCN(S(=O)(=O)c2cc(Br)cc3c2N(C(=O)C2CC2)CC3)C1 (centres undefined) , report inhibition.
## Output -3% (inactive)

## Input For the compound CN(CCN)Cc1cccc(-c2cccc(-c3nc4ccc(F)cc4[nH]3)c2)c1 , report inhibition.
## Output 6% (inactive)

## Input For the compound CN1CCC(N2CCN(Cc3cccc(-c4ccc(-c5nc6ccccc6[nH]5)cc4)c3)CC2)CC1 , report inhibition.
## Output -7% (inactive)

## Input For the compound COc1ccc2nc(C)cc(NN=Cc3cc(OC)c(OC)cc3OC)c2c1 , report inhibition.
## Output 5% (inactive)

## Input For the compound Cc1cc2[nH]c(-c3ccc(C(=O)NCCCN4CCN(c5cccc(Cl)c5)CC4)cc3)nc2cc1Cl , report inhibition.
## Output 6% (inactive)

## Input For the compound CCc1nc(N)nc(N)c1-c1ccc(F)c(F)c1 , report inhibition.
## Output -3% (inactive)

## Input For the compound COc1ccc(N2C(N)=NC(N)=NC2(C)C)cc1 , report inhibition.
## Output 4% (inactive)

## Input For the compound C=CCn1c(Sc2ccc(C#N)c([N+](=O)[O-])c2)nnc1-c1ccc(OC)cc1 , report inhibition.
## Output 0% (inactive)

## Input For the compound CCN(CC)CCN(Cc1ccc(-c2ccc(C(F)(F)F)cc2)cc1)C(=O)Cn1cc(Cc2cnn(C)c2)c(=O)nc1/C=C/c1ccc(F)cc1 , report inhibition.
## Output 3% (inactive)

## Input For the compound CCCCCCOc1ccc(C(=O)NCCCC2CCCN(CCCCCNC(=O)C=Cc3ccc(Cl)c(Cl)c3)C2)cc1 (centres undefined) , report inhibition.
## Output 2% (inactive)

## Input For the compound CC(C)C[C@H](NC(=O)c1ccc(OCCN2CCOCC2)cc1)C(=O)N[C@H](/C=N/NC(=O)c1ccccc1)CCc1ccccc1 , report inhibition.
## Output -3% (inactive)

## Input For the compound CCCOc1ccc2ccccc2c1CNCCCCCCNCc1c(OCCC)ccc2ccccc12 , report inhibition.
## Output 0% (inactive)

## Input For the compound COc1cc2c(cc1C(F)(F)F)N(C(=O)Nc1cccc(-c3ccc(CN(C)C)cc3)c1)CC2 , report inhibition.
## Output 1% (inactive)

## Input For the compound COc1ccc2nccc([C@@H](O)CN3CCC(NC(=O)C(c4ccccc4C)N4CCC(Cc5ccccc5)CC4)CC3)c2c1 (some centres undefined) , report inhibition.
## Output 3% (inactive)

## Input For the compound CS(=O)(=O)CCNCc1cccc(-c2ccc3c(Nc4ccc(Oc5ccccc5)cc4)ccnc3c2)c1 , report inhibition.
## Output 6% (inactive)

----------
experiment: inhibition of 3D7 malaria parasite growth – strain 3D7 (AID 2306);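 also: 0% = DMSO wells and 100% = chloroquine plus artemisinin control wells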; details: P. falciparum 3D7 erythrocytic growth, LDH absorbance, 72 h; at 2 µM; stronger effect = higher value
Endpoint label: growth inhibition (%)
Give your result in % as a bare value.

## Input For the molecule CO/C(=C\C=C\c1cc2cc(Cl)c(Cl)cc2[nH]1)C(=O)NCCCN1CCN(C2CCCCC2)CC1 , report growth inhibition.
## Output 99

## Input For the molecule COc1cccc(CCN(Cc2ccccc2-c2ccc(CNC3CC(C)(C)NC(C)(C)C3)cc2)C(=O)NC2CCCCC2)c1 , report growth inhibition.
## Output 103

## Input For the molecule CCOC(=O)c1sc(C(C)Nc2ccccc2)nc1-c1ccccc1 (centres undefined) , report growth inhibition.
## Output 95

## Input For the molecule Cn1nc(-c2ccc(NC(=O)Nc3cc(C(F)(F)F)ccc3F)cc2)c2cnc(NCCc3cnc[nH]3)nc21 , report growth inhibition.
## Output 99

## Input For the molecule O=C(Nc1ccc(OC2CCN(Cc3ccc(F)cc3)C2)c(Cl)c1)c1ccc(F)cc1 (centres undefined) , report growth inhibition.
## Output 96

## Input For the molecule COc1cc(C)c(C(O)CNC(C)CCc2ccccc2)cc1C (centres undefined) , report growth inhibition.
## Output 98

## Input For the molecule CC(COc1ccc2c(c1)OC(C)(C)CC2c1ccccc1)NCC(O)c1cccc(Cl)c1 (centres undefined) , report growth inhibition.
## Output 98

## Input For the molecule O=C(Nc1ccc(C2=NC3CCCCC3N2)cc1)Nc1ccc(C2=NC3CCCCC3N2)cc1 (centres undefined) , report growth inhibition.
## Output 88

## Input For the molecule COc1cccc(CNC(=O)NC2CCN(c3ccnc(Nc4ccc(F)cc4)n3)C2)c1 (centres undefined) , report growth inhibition.
## Output 94

----------
assay: antimalarial activity against Dd2 strain (AID 2302);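 also: 0% = DMSO untreated growth and 100% = chloroquine plus artemisinin killed control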; conditions: P. falciparum Dd2 in RBCs, LDH growth readout, 72 h; at 2 µM; stronger effect = higher value
Could you please report measured growth inhibition for the items listed next?
Give your result in % as a bare value.

## Input For the compound CC(C)Nc1cc(C(=O)N[C@@H](Cc2ccccc2)[C@H](O)CNC(C)(C)c2cccc(C(F)(F)F)c2)cc(N2CCCCS2(=O)=O)c1 , report growth inhibition.
## Output 98

## Input For the compound COc1ccc2ncc(F)c([C@@H](O)CN3CCC(NCc4ccc5c(c4)NCCS5)CC3)c2n1 , report growth inhibition.
## Output 69

## Input For the compound O=C(/C=C/c1ccc(Cl)c(Cl)c1)NC1CCC(CN2CCC(c3nc4ncccc4[nH]3)CC2)CC1 (centres undefined) , report growth inhibition.
## Output 2

## Input For the compound CN1CCCC(CN2CCN(Cc3cccc(-c4ccc(-c5nc6ccc(F)cc6[nH]5)cc4)c3)CC2)C1 (centres undefined) , report growth inhibition.
## Output 100

## Input For the compound COc1ccc(Cl)cc1N1CCN(CCCNC(=O)c2ccc(-c3nc4cc(Cl)c(F)cc4[nH]3)cc2)CC1 , report growth inhibition.
## Output 98

## Input For the compound O=C(NCCNc1ccnc(NCc2ccc(F)cc2)n1)c1cc2ccccc2s1 , report growth inhibition.
## Output 17

## Input For the compound CCCNC(=O)c1ccc(N2CCC(c3ccccc3C)CC2)nc1 , report growth inhibition.
## Output 80

## Input For the compound O=[N+]([O-])c1cccc(CNCC2CCN(Cc3ccc4ccccc4c3)CC2)c1 , report growth inhibition.
## Output 42

## Input For the compound Cc1ccccc1Cn1c(CN2CCC(C(=O)NC3CC3)CC2)cc2ccccc21 , report growth inhibition.
## Output 96

----------
assay: inhibition of 3D7 malaria parasite growth – strain 3D7 (AID 2306);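 also: 0% = DMSO wells and 100% = chloroquine plus artemisinin control wells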; conditions: P. falciparum 3D7 erythrocytic growth, LDH absorbance, 72 h; at 2 µM; stronger effect = higher value
Activity calls are given as the source filed them. The rule behind the calls is not given here.
Endpoint label: growth inhibition

## Input For the molecule O=C(Nc1cccc(F)c1)c1ccc(C(=O)NC2CCN(CC3CCCCC3)CC2)cc1 , report growth inhibition.
## Output 96% (active)

## Input For the molecule O=C(/C=C/c1ccc(Cl)c(Cl)c1)NCCCCCN1CCC(NC(=O)NC2CCCCCC2)CC1 , report growth inhibition.
## Output 99% (active)

## Input For the molecule CC(C)Cn1c(Sc2ccc(C#N)c([N+](=O)[O-])c2)nnc1-c1ccccc1 , report growth inhibition.
## Output 83% (active)

## Input For the molecule OC(CNCc1cccc(Oc2ccc(Cl)cc2)c1)c1cc(C(F)(F)F)cc(C(F)(F)F)c1 (centres undefined) , report growth inhibition.
## Output 99% (active)

## Input For the molecule COc1ccc2nc3cc(Cl)ccc3c(NCCNCC(O)CO)c2n1 (centres undefined) , report growth inhibition.
## Output 100% (active)

## Input For the molecule COc1ccc(-c2ccc(NC(=O)c3ccc(Cl)cc3)cc2)cc1CN1CCN(C)CC1 , report growth inhibition.
## Output 86% (active)

## Input For the molecule Cc1noc(-c2ccc(N3CCC(C(=O)N4CCN(C(C)C)CC4)CC3)cc2)n1 , report growth inhibition.
## Output 95% (active)

## Input For the molecule CC[C@H](NC(=O)c1c(CN2CCC(N3CCCCC3)CC2)c(-c2ccccc2)nc2c(Cl)c(O)ccc12)c1ccccc1 , report growth inhibition.
## Output 101% (active)

## Input For the molecule O=C(NCCc1ccccc1)N(Cc1ccccc1-c1ccc(CNCCc2ccccc2)cc1)C1CCN(Cc2ccccc2)CC1 , report growth inhibition.
## Output 97% (active)

## Input For the molecule CNCCNCc1cccc(-c2cccc(-c3nc4ccc(C(F)(F)F)cc4[nH]3)c2)c1 , report growth inhibition.
## Output 100% (active)

## Input For the molecule O=C(Nc1ccc(OC2CCN(Cc3ccc(F)cc3)C2)c(Cl)c1)c1ccco1 (centres undefined) , report growth inhibition.
## Output 96% (active)

## Input For the molecule Cc1cc(O)c(CN2CCN(Cc3cccs3)CC2)cc1C(C)C , report growth inhibition.
## Output 98% (active)

## Input For the molecule CCOc1cc(C)ccc1N1CCN(CCCCNC(=O)c2ccc(NC(=O)c3ccc(Cl)cc3)cc2)CC1 , report growth inhibition.
## Output 100% (active)

## Input For the molecule O=C(Cc1ccccc1)NC(Nc1ccc([N+](=O)[O-])cc1)C(Cl)(Cl)Cl (centres undefined) , report growth inhibition.
## Output 99% (active)

## Input For the molecule COc1ccccc1-c1nc2nc(N)nc(N)c2nc1-c1ccccc1OC , report growth inhibition.
## Output 84% (active)

## Input For the molecule CCCC/C=C(\Cl)c1ccc(O)c2c1C[C@H]1C[C@H]3[C@H](N(C)C)C(=O)C(C(N)=O)=C(O)[C@@]3(O)C(=O)C1=C2O , report growth inhibition.
## Output 90% (active)

## Input For the molecule COCCN1CCN(Cc2ccc(-c3ccc(-c4nc5c(C)cccc5[nH]4)s3)cc2)CC1 , report growth inhibition.
## Output 95% (active)

## Input For the molecule Cc1nc(N=C(N)N)nc2cc3c(cc12)CCC3 , report growth inhibition.
## Output 90% (active)

## Input For the molecule O=C(Nc1ccc(-c2cccc(CN3CCC(O)CC3)c2)cc1)c1cccc(Cl)c1 , report growth inhibition.
## Output 94% (active)

Data origin: PubChem BioAssay
